Tested on: OVCAR-3
Measurement protocol: DTP 60-cell-line panel: OVCAR-3
Format: cell-based
Cond: read-out: LC50; ovarian OVCAR-3; Table 3
Recorded metric: CC50

I looked up S=C([S][Au-][P+](CCCCCC[P+]([Au-][S]C(=S)n1cccn1)(c1ccccc1)c1ccccc1)(c1ccccc1)c1ccccc1)n1cccn1 and its CC50 for OVCAR-3 was > 100 µM

====

Tested on: RXF393
Measurement protocol: DTP 60-cell-line panel: RXF393
Assay type: cell-based
Cond: read-out: LC50; renal RXF393; Table 3
Recorded metric: CC50

I looked up S=C([S][Au-][P+](CCCCCC[P+]([Au-][S]C(=S)n1cccn1)(c1ccccc1)c1ccccc1)(c1ccccc1)c1ccccc1)n1cccn1 and its CC50 for RXF393 was > 100 µM

====

System: RPMI-8226
Measurement protocol: DTP 60-cell-line panel: RPMI-8226
Format: cell-based
Cond: read-out: LC50; leukemia RPMI-8226; Tables 3, 4
Recorded metric: CC50

Measured CC50 of S=C([S][Au-][P+](CCCCCC[P+]([Au-][S]C(=S)n1cccn1)(c1ccccc1)c1ccccc1)(c1ccccc1)c1ccccc1)n1cccn1 [Compound 10] : > 100 µM

====

I'd be grateful if you could share measured pIC50 for these entries.
Test system: unstimulated normal cells (resting lymphocytes, PBMC)
Measurement protocol: Growth inhibition of normal cells: resting lymphocytes
Assay type: cell-based
Cond: read-out: lymph (resting) IC50; resting human lymphocytes (PBMC), MTT, 3 d
Answers are plain numbers, as −log10 of the molar value.

Consider the reported pIC50 for these compounds:
- Compound: "S=C([S][Au][PH](CCC[PH]([Au][S]C(=S)n1cccn1)(c1ccccc1)c1ccccc1)(c1ccccc1)c1ccccc1)n1cccn1 [Compound 7]"
  Recorded metric: "pIC50"
  Observed value: 5.15
- Compound: "Cc1cc(C)n(C(=S)[S][Au-][P+](c2ccccc2)(c2ccccc2)c2ccccc2)n1 [Compound 2]"
  Recorded metric: "pIC50"
  Observed value: 5.02
- Compound: "Cc1cc(C)n(C(=S)[S][Au-][P+](CCC[P+]([Au-][S]C(=S)n2nc(C)cc2C)(c2ccccc2)c2ccccc2)(c2ccccc2)c2ccccc2)n1 [Compound 8]"
  Recorded metric: "pIC50"
  Observed value: 5.21
- Compound: "S=C([S][Au-][P+](CCC[P+]([Au-][S]C(=S)n1ncc2ccccc21)(c1ccccc1)c1ccccc1)(c1ccccc1)c1ccccc1)n1ncc2ccccc21 [Compound 9]"
  Recorded metric: "pIC50"
  Observed value: 4.73
- Compound: "Cc1cc(C)n(C(=S)[S][Au][PH](CCCCCC[PH]([Au][S]C(=S)n2nc(C)cc2C)(c2ccccc2)c2ccccc2)(c2ccccc2)c2ccccc2)n1 [Compound 11]"
  Recorded metric: "pIC50"
  Observed value: 4.74

Answer for every listed entry: what is its pIC50? The entries follow.
1. S=C([S][Au][PH](c1ccccc1)(c1ccccc1)c1ccccc1)n1cccn1 [Compound 1]
2. S=C([S][Au-][P+](CCCCCC[P+]([Au-][S]C(=S)n1ncc2ccccc21)(c1ccccc1)c1ccccc1)(c1ccccc1)c1ccccc1)n1ncc2ccccc21 [Compound 12]
3. S=C([S][Au][PH](c1ccccc1)(c1ccccc1)c1ccccc1)n1ncc2ccccc21 [Compound 3]

Reply |
1: 5.04; 2: 4.42; 3: 4.85

Measured pIC50 of S=C([S][Au-][P+](CCCCCC[P+]([Au-][S]C(=S)n1cccn1)(c1ccccc1)c1ccccc1)(c1ccccc1)c1ccccc1)n1cccn1 [Compound 10] : 4.72

====

Test system: UACC-62
Measurement protocol: DTP 60-cell-line panel: UACC-62
Format: cell-based
Cond: read-out: LC50; melanoma UACC-62; Tables 3, 4
Recorded metric: CC50

I looked up S=C([S][Au-][P+](CCCCCC[P+]([Au-][S]C(=S)n1cccn1)(c1ccccc1)c1ccccc1)(c1ccccc1)c1ccccc1)n1cccn1 and its CC50 for UACC-62 was > 100 µM

====

Test system: COLO 205
Measurement protocol: DTP 60-cell-line panel: COLO 205
Assay type: cell-based
Cond: read-out: LC50; colon COLO205; Tables 3, 4
Recorded metric: CC50

Measured CC50 of S=C([S][Au-][P+](CCCCCC[P+]([Au-][S]C(=S)n1cccn1)(c1ccccc1)c1ccccc1)(c1ccccc1)c1ccccc1)n1cccn1 : > 100 µM
